- Condition Info: RP-HPLC, C18, MeOH 70% / H2O 30%, 30 °C

| Molecule | Lipophilicity logk |
| --- | --- |
| O=C(Nc1ccccc1F)c1cnc(Cl)cn1 [Compound 9] | 0.490 |
| O=C(Nc1ccccc1Cl)c1cnc(Cl)cn1 [Compound 12] | 0.819 |
| O=C(Nc1cccc(Cl)c1)c1cnc(Cl)cn1 [Compound 13] | 0.587 |
| NNC(=O)c1ccncc1 [INH, isoniazid, reference compound] | −0.743 |
| O=C(Nc1cccc([N+](=O)[O-])c1)c1cnc(Cl)cn1 [Compound 25] | 0.344 |
| O=C(Nc1ccc(Br)cc1)c1cnc(Cl)cn1 [Compound 17] | 0.660 |
| NC(=O)c1cnccn1 [PZA, pyrazinamide, reference compound] | −0.687 |

* * *

- System: M. tuberculosis H37Rv CNCTC My 331/88
- Procedure Summary: In vitro antimycobacterial activity, microdilution panel method (MIC)
- Format: cell-based, Mycobacterium tuberculosis
Observable: Antimycobacterial activity against M. tbc H37Rv (in words)

| Sample Smiles | Readout Value |
| --- | --- |
| N#Cc1ccc(NC(=O)c2cnc(Cl)cn2)cc1 | inactive |
| COc1ccc(NC(=O)c2cnc(Cl)cn2)c(OC)c1 | inactive |

* * *

- System: M. avium ssp. avium Chester CNCTC My 80/72
- Procedure Summary: In vitro antimycobacterial activity, microdilution panel method (MIC)
- Format: cell-based, Mycobacterium avium
- Condition Info: Mycobacterium avium
Observable: MIC

| Molecule | Observable | Readout Value |
| --- | --- | --- |
| O=C(Nc1cccc(O)c1)c1cnc(Cl)cn1 | MIC | > 100 µg/mL |
| NNC(=O)c1ccncc1 [INH, isoniazid, reference compound] | MIC | 12.5 to 25 µg/mL |
| O=C(Nc1ccc(F)cc1F)c1cnc(Cl)cn1 | MIC | > 50 µg/mL |
| CC(C)c1ccc(NC(=O)c2cnc(Cl)cn2)cc1 | MIC | > 100 µg/mL |
| NC(=O)c1cnccn1 [PZA, pyrazinamide, reference compound] | MIC | > 100 µg/mL |
| O=C(Nc1ccccc1[N+](=O)[O-])c1cnc(Cl)cn1 | MIC | > 100 µg/mL |
| O=C(Nc1cc(Cl)c(Cl)cc1Cl)c1cnc(Cl)cn1 | MIC | > 100 µg/mL |
